This document collects Ki values reported for Carbonic anhydrase 12 (Homo sapiens).
Respond with the bare value in nM.

compound | Ki (nM)
CC(=O)N1N=C(c2ccc(Cl)cc2Cl)CC1c1ccc(OS(N)(=O)=O)cc1 (stereo not given) | 42
CC(=O)N1N=C(c2cccc(OS(N)(=O)=O)c2)CC1c1ccc(F)cc1 (stereo not given) | 13.5
COc1ccc(C2=NN(C(C)=O)C(c3ccc(OS(N)(=O)=O)cc3)C2)cc1 (stereo not given) | 9.5
CC(=O)N1N=C(c2ccc([N+](=O)[O-])cc2)CC1c1ccc(OS(N)(=O)=O)cc1 (stereo not given) | 0.88
CC(=O)N1N=C(c2ccccc2)CC1c1cccc(OS(N)(=O)=O)c1 (stereo not given) | 22.9

Let us examine a further case.
stdin: Give its Ki value. Item: CC(=O)N1N=C(c2ccc(C)cc2)CC1c1cccc(OS(N)(=O)=O)c1 (stereo not given)
stdout: 49.8
